Kindly supply the reported TGI values for the records listed here.
System: K-562 leukemia
Experiment: NCI tumour cell line growth inhibition, 48 h

Need TGI, item C=CC1=C[C@@H]2[C@@H]3O[C@]4(CC[C@H](O4)[C@@H](C)C[C@@H](O)C3=O)C[C@H](O)C3=NCC[C@@]32CC1
> 33.3 µM

Repeat with C[C@H]1[C@H](C)CC[C@]2(C(=O)N3CCN(C)CC3)CC[C@]3(C)C(=CC[C@@H]4[C@@]5(C)C/C(=C/c6cccnc6)C(=O)C(C)(C)[C@@H]5CC[C@]43C)[C@H]12
> 100 µM

Can you check CCOC(=O)c1sc2nc(SC)nc3c2c1NCN3c1ccc2c(c1)OCCCO2 next?
> 100 µM

Next record, please: O=C1CCCCC1=C(I)I
95.8 µM

Also, CS(=O)(=O)c1ccc(-c2cnc(N)c(C(=O)Nc3ccccc3)n2)cc1 please.
> 100 µM

Also need Cc1cnc(/N=c2\sc(C)cn2-c2ncc(C)s2)s1 , thanks.
> 100 µM

// query: COC(=O)C1CC=C(SC(=O)c2ccccc2)N1C(=O)c1ccccc1 (stereo not given)
> 100 µM

Repeat with CCN1CCN(CC(=O)Nc2nc3ccc(NCc4ccc(Cl)cc4)cc3s2)CC1
4.14 µM

Try this compound too: c1cc(CCN2CCCCC2)ccn1
> 100 µM

Item: CC1=C(C(=O)Nc2cccc(Cl)c2)C(c2ccc([N+](=O)[O-])cc2)C(C(=O)Nc2cccc(Cl)c2)=C(C)N1
> 100 µM

Please give the result for Cc1nc2ccc(F)cc2c2c1CCO2 too.
> 100 µM

Let us now turn to CS(=O)(=O)OCCn1cnc2nc(NC(=O)c3ccccc3)[nH]c(=O)c21
> 100 µM

What would you report for CCOC(=O)C1=C(NNC(=O)Cc2ccccc2)CSC1=Nc1ccccc1 ?
> 100 µM

Param item: CN1CCN(c2cc3c(cc2F)c(=O)c(C(=O)O)cn3C2CC2)CC1CC#N (stereo not given)
> 100 µM

Another compound to look at: COc1cc(Cn2c(=S)ss/c2=N\C(=S)N(C)C)cc(OC)c1OC
> 100 µM

// next record CC(O)(/C=C/c1ccccc1)P(=O)(O)c1ccccc1 (stereo not given)
> 100 µM

Can you check Cc1cccc(NC(=O)c2cc3cc(N=Nc4ccccc4Cl)ccc3oc2=O)c1 next?
> 100 µM

For O=C(O)C(O)Cc1ccccn1 (stereo not given) then?
> 100 µM

Then what about the compound C=C(C)C(=O)OC1CC2=CC(CC3(C)OC3C3OC(=O)C(=C)C13)OC2=O (stereo not given) ?
9.8 µM

Ok, now O=C(c1ccco1)n1c2ccc(Br)cc2c2nc3ccccc3nc21
> 100 µM

Same thing, different compound: CN=CN(C)c1c2ccccc2nc2ccccc12
> 100 µM

Field entry: C/C(=C\c1ccn(-c2ccc(N)c(F)c2)n1)[C@@H]1C[C@@H]2O[C@]2(C)CCC[C@H](C)[C@H](O)[C@@H](C)C(=O)C(C)(C)[C@@H](O)CC(=O)O1
> 50 µM

For CC(=O)CCC(=O)C(=[N+]=[N-])S(=O)(=O)c1ccccc1 then?
> 100 µM

// repeat for N#Cc1c(-c2ccc(Cl)cc2)c(C#N)c(=O)n(NS(=O)(=O)c2ccccc2)c1S and report
> 100 µM

Query CCCCCCCCCCC(O)[C@H]1CCC(C2CC[C@H]([C@H](O)CCCCCCCCCCC(O)CC3=CC(C)OC3=O)O2)O1 (stereo not given in full) next
4.55 µM

Note, next up: CCN(CCNc1ccc(C)c2sc3cc(Cl)ccc3c(=O)c12)CC(C)O (stereo not given)
3.41 µM

Likewise for COc1cc2nc(-c3cccs3)nc(N3C(c4ccc(O)cc4)=NNC(=O)c4ccccc43)c2cc1OC ?
> 100 µM

Field entry: CC(=O)Nc1ccc(/C=N\N2C(=O)c3ccccc3C2=O)cc1
> 100 µM

Now the compound c1ccc(-c2cs[s+]c2)cc1
> 100 µM

Next: C(=Nc1ccc(-c2cc(-c3ccccc3)nc3ccc4ccccc4c23)cc1)c1ccccc1
> 100 µM

And what about the compound O=c1[nH]nc2ccccc2c1Cl ?
24.7 µM

Cool, now O=C1Nc2ccccc2C1Cc1ccc([N+](=O)[O-])cc1 (stereo not given)
> 100 µM

Also, Cc1nc2sc(C(=O)Nc3cccc4ccccc34)c(N)c2cc1C(=O)/C=C/c1ccccc1 please.
> 50 µM

Please give the result for COCC1N=C(c2cc(OC)c(OC)c(OC)c2-c2cc3c(cc2C2OCCCO2)OCO3)O[C@H]1c1ccccc1 (stereo not given in full) too.
> 100 µM

Also check COc1cc(C(O)c2nc3ccccc3s2)cc(OC)c1OC (stereo not given)
> 100 µM

Further, for O=C(N/N=C/c1ccc([N+](=O)[O-])cc1)c1cccc2nc3ccccc3nc12 ?
> 100 µM

// repeat for Cc1nn(-c2ccccc2)c2c1CC(=O)Nc1ccccc1-2 and report
0.721 µM

Same lookup for CCOP(=O)(OCC)C(Nc1cccc([N+](=O)[O-])c1)c1ccccc1 (stereo not given) , please.
> 100 µM

Consider next the compound Cn1ccnc1C(=O)/C=C/c1ccc(CC(=O)Nc2ccc(S(F)(F)(F)(F)F)cc2)cc1 in the same way.
16.7 µM

What would you report for C=C(C)[C@@H]1CC[C@]2(C(=O)NCCNCCNCCN)CC[C@]3(C)[C@H](CC[C@@H]4[C@@]5(C)CC[C@H](O)C(C)(C)[C@@H]5CC[C@]43C)[C@@H]12 ?
> 100 µM
